This listing pairs binders with measured EC50.
Target: T1, human CTLA-4 on transfected CHO-K1 cells (human, UniProt P16410 36-223)
T1 construct: whole, on cells; also called human CTLA4-transfected CHO cells; CTLA-4 expressing CHO cells
T1 sequence (looked up): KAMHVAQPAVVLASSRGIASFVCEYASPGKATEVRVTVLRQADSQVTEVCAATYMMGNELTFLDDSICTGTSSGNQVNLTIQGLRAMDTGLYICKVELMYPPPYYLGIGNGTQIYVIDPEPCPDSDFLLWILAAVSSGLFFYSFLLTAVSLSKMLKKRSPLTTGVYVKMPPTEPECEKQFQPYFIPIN
Experiment: competition FACS on human CTLA4-transfected CHO-K1 cells; competitor biotinylated human B7.1 at 10 nM
Number first, unit second: that is the form wanted.

Below, each entry is followed by its recorded EC50 result.
hNGALM3 (designed binder) QDSTSDLIPAPPLSKVPLQQNFQDNQFHGKWYVVGLAGNRILRQDQHPMLMYATIYELKGDKSYNVTSVISSHKKCLYPIATFVPGSQPGEFTLGNIKSYGDKVSYLVRVVSTDYNQYAVVFFKHADTNYESFSITIYGRTKELASELKENFIRFSKSLGLPENHIVFPVPIDQCIDGSAWSHPQFEK :: 7.6 nM
hNGALM4 (designed binder) QDSTSDLIPAPPLSKVPLQQNFQDNQFHGKWYVVGLAGNRILRDDQHPMPMYATIYELKGDKSYNVTSVISSHKKCLYPIATFVPGSQPGEFTLGNIKSYGDKWSYLVRVVSTDYNQYAVVFFKHADSNYESFSITIYGRTKELASELKENFIRFSKSLGLPENHIVFPVPIDQCIDG :: 9.5 nM

Please look at the following binder next.
Give the value of EC50 reported for the following: hNGALM6 (designed binder) QDSTSDLIPAPPLSKVPLQQNFQDNQFHGKWYVVGLAGNRILRSDQHPMPMYATIYELKGDKSYNVTSVISSHKKCLYSIATFVPGSQPGEFTLGNIKSYGDKESYLVRVVSTDYNQYAVVFFKYASDNDESFSITIYGRTKELASELKENFIRFSKSLGLPENHIVFPVPIDQCIDGSAWSHPQFEK
10.3 nM

Origin of values: patent US20140051645A1
